Listed binders paired with reported Relative KD
Target Entity: T1, PVR conjugated to Histidine tag (PVR-HIS, Sino Cat. no. 10109-H08H) (Homo sapiens (Human), UniProt P15151 21-343)
T1 construct: Bought reagent; also called PVR-HIS tagged
T1 sequence: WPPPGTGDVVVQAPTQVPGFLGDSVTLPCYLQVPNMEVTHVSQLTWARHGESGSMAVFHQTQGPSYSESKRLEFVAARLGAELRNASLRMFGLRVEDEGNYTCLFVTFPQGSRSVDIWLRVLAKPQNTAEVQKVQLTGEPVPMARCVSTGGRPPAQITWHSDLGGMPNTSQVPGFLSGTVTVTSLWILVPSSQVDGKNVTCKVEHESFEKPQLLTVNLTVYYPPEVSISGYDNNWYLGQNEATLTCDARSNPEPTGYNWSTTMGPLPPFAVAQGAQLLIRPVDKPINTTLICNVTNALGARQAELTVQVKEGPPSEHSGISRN
Assay Details: SPR (Biacore T200); KD divided by the KD of VH0/Vκ0 WT
Form: value (number only, do not type unit).

Lab note: measured Relative KD of chimeric anti-PVR antibody 5B9 wild type, IgG4 (S241P), VH0/VK0 (antibody, V domains shown, Mouse/human chimeric antibody with human IgG4 (S241P) constant region; also called WT; parental N56 variant (VH0VK0)) VH: QVQLQQSGAELMKPGASVKISCKATGYTFSNYWIEWIKQRPGHGLEWIGEIFPGSGRINFNEKFKGKATFTADTSSDTTYMQLSSLTSADSAVYYCARTKIYGNSFDYWGQGTTLTVSP VL: DIMMTQSHKFMSTSVGDRVNITCKASQDVGTAVVWYQQKPGQSPKLLIYWASSRHNGVPDRFTGSGSGTDFTLTISNVQSEDLSDYFCQQYSRYPLTFGAGTKLELK was 1

Then this binder:
Lab note: measured Relative KD of chimeric 5B9 N56E variant, IgG4(S241P) N56E_VH0/VK0 (antibody, name in Kabat numbering, V domains shown, Human IgG4 (S241P) constant region; also called chimeric N56E mutated parental antibody) VH: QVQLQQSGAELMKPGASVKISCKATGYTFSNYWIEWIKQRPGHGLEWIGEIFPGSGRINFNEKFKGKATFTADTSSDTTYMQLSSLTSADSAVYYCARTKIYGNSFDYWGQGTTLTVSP VL: DIMMTQSHKFMSTSVGDRVNITCKASQDVGTAVVWYQQKPGQSPKLLIYWASSRHEGVPDRFTGSGSGTDFTLTISNVQSEDLSDYFCQQYSRYPLTFGAGTKLELK was 0.69
